test system: BaF3-FLT3-ITD-D835G; assay: cells; parameters: species or system Ba/F3 stable lines; settings: read-out: Quizartinib / (AC220); 72 h proliferation; inhibitor
measuredAttribute: IC50 (nM)
Entry rule: numbers only, all in nM.

Asked: For the compound shown here, CC(C)(C)c1cc(NC(=O)Nc2ccc(-c3cn4c(n3)sc3cc(OCCN5CCOCC5)ccc34)cc2)no1 [quizartinib] , give the reported IC50.
Given back: 4.3

* * *

system: BaF3-FLT3-ITD-N676D; assay: cells; design: species or system Ba/F3 stable lines; settings: read-out: Quizartinib / (AC220); 72 h proliferation; inhibitor
measuredAttribute: pIC50
The quantity pIC50 is defined as the negative base-10 logarithm of the molar concentration.

Asked: GET /values?readout=pIC50&item= CC(C)(C)c1cc(NC(=O)Nc2ccc(-c3cn4c(n3)sc3cc(OCCN5CCOCC5)ccc34)cc2)no1 [quizartinib]
Given back: 8.08

* * *

tested on: BaF3-FLT3-ITD-F691I; assay: cells; parameters: species or system Ba/F3 stable lines; conditions: read-out: Quizartinib / (AC220); 72 h proliferation; inhibitor
measuredAttribute: pIC50
Friendly reminder that pIC50 comes from taking -log10 of the concentration in mol/L.

Asked: Form entry - test system: BaF3-FLT3-ITD-F691I; read-out: pIC50; compound: "CC(C)(C)c1cc(NC(=O)Nc2ccc(-c3cn4c(n3)sc3cc(OCCN5CCOCC5)ccc34)cc2)no1"
Given back: 7.02

* * *

system: U937^Flt3-WT; test: cells; parameters: species or system human leukemia lines named per line; conditions: read-out: Quizaritinib (AC220); 72 h proliferation, mean ± SD; inhibitor
measuredAttribute: pIC50
Give only the number. pIC50 is defined as minus log10 of concentration in molar units.

Asked: // returns reported pIC50 for input "CC(C)(C)c1cc(NC(=O)Nc2ccc(-c3cn4c(n3)sc3cc(OCCN5CCOCC5)ccc34)cc2)no1"
Given back: 5.84

* * *

tested on: BaF3-FLT3-MOLM-ITD; assay: cells; set-up: species or system Ba/F3 stable lines; conditions: Mus musculus, BaF3, 72 h, read-out: GZD824
measuredAttribute: IC50 (nM)
Hi! Could you send only the number? It should be in nM, unit omitted.

Asked: Which IC50 is reported for this compound? Cc1ccc(C(=O)Nc2ccc(CN3CCN(C)CC3)c(C(F)(F)F)c2)cc1C#Cc1cnc2[nH]ncc2c1 [GZD824]
Given back: 0.8

* * *

system: MOLM-13^Flt3-ITD; test: cells; set-up: species or system human leukemia lines named per line; settings: 72 h, read-out: Gilteritinib (ASP2215)
measuredAttribute: pIC50
Keep it numeric: pIC50 is minus log10 of the concentration in mol/L.

Asked: Which pIC50 is reported for this molecule? "CCc1nc(C(N)=O)c(Nc2ccc(N3CCC(N4CCN(C)CC4)CC3)c(OC)c2)nc1NC1CCOCC1"
Given back: 8.03

* * *

tested on: BaF3-FLT3-ITD-D835I; experiment: cells; design: species or system Ba/F3 stable lines; settings: read-out: Quizartinib / (AC220); 72 h proliferation; inhibitor
measuredAttribute: pIC50
Recall that pIC50 is obtained by taking minus log10 of the concentration measured in molar.

Asked: Give the reported pIC50 for "CC(C)(C)c1cc(NC(=O)Nc2ccc(-c3cn4c(n3)sc3cc(OCCN5CCOCC5)ccc34)cc2)no1" (system: BaF3-FLT3-ITD-D835I).
Given back: 6.74

* * *

tested on: BaF3-FLT3-D835H; assay: cells; parameters: species or system Ba/F3 stable lines; details: read-out: Quizartinib / (AC220); 72 h proliferation; inhibitor
measuredAttribute: pIC50
pIC50 (log units): -log10 of the concentration in mol/L.

Asked: Form field: reported pIC50 of "CC(C)(C)c1cc(NC(=O)Nc2ccc(-c3cn4c(n3)sc3cc(OCCN5CCOCC5)ccc34)cc2)no1"
Given back: 8.40

* * *

system: BaF3-Tel-FLT3-ITD; experiment: cells; set-up: species or system Ba/F3 stable lines; conditions: read-out: Quizartinib / (AC220); 72 h proliferation; inhibitor
measuredAttribute: IC50 (nM)
Kindly provide the numeric value in nM only, without the unit symbol.

Asked: Quick one: IC50 for "CC(C)(C)c1cc(NC(=O)Nc2ccc(-c3cn4c(n3)sc3cc(OCCN5CCOCC5)ccc34)cc2)no1" ?
Given back: 2

* * *

system: BaF3-tel-FLT3-K663Q; assay: cells; set-up: species or system Ba/F3 stable lines; conditions: read-out: Quizartinib / (AC220); 72 h proliferation; inhibitor
pIC50: −log10 of the molar value.
measuredAttribute: pIC50

Asked: Give its pIC50 value. Item: CC(C)(C)c1cc(NC(=O)Nc2ccc(-c3cn4c(n3)sc3cc(OCCN5CCOCC5)ccc34)cc2)no1 [quizartinib]
Given back: < 6.00

* * *

molecular target: PDGFRα (Homo sapiens, UniProt P16234)
Sequence (P16234 24-1089): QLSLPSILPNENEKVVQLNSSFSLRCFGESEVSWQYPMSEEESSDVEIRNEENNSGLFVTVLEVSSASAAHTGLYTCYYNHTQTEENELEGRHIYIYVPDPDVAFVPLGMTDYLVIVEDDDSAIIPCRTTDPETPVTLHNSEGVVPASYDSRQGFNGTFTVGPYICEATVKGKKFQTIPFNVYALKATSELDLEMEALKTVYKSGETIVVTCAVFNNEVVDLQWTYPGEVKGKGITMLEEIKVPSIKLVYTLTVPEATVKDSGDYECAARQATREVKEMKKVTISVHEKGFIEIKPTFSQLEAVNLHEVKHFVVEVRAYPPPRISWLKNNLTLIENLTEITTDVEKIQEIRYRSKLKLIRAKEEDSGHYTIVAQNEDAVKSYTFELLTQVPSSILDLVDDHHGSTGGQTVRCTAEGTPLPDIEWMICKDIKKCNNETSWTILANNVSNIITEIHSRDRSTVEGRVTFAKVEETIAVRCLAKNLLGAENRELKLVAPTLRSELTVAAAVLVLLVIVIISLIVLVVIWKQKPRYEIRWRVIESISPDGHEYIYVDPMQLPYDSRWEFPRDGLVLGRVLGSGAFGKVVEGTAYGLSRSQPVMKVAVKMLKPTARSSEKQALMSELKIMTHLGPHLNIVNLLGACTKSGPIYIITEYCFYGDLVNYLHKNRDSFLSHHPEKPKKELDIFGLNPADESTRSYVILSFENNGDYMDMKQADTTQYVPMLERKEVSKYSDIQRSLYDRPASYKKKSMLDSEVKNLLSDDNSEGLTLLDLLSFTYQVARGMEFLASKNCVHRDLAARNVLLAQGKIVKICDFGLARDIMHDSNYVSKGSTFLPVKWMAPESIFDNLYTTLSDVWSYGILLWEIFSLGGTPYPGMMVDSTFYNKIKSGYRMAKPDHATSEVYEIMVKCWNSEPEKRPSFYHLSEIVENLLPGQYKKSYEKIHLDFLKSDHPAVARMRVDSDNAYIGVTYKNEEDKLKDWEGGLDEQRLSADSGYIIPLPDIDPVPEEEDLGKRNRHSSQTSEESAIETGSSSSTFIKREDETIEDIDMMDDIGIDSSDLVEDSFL
measuredAttribute: IC50 (nM)
Express it in nM; write the number only.

Asked: Which IC50 reading was recorded for the molecule CCc1nc(C(N)=O)c(Nc2ccc(N3CCC(N4CCN(C)CC4)CC3)c(OC)c2)nc1NC1CCOCC1 [gilteritinib] ?
Given back: 148

* * *

test system: MEG01^Flt-WT; assay: cells; set-up: species or system human leukemia lines named per line; settings: read-out: Quizaritinib (AC220); 72 h proliferation, mean ± SD; inhibitor
measuredAttribute: IC50
Write the numeric value and follow it with the unit.

Asked: Any idea what IC50 was measured for CC(C)(C)c1cc(NC(=O)Nc2ccc(-c3cn4c(n3)sc3cc(OCCN5CCOCC5)ccc34)cc2)no1 [quizartinib] ?
Given back: 3.31 µM

* * *

test system: BaF3-tel-FLT3; assay: cells; design: species or system Ba/F3 stable lines; details: read-out: Quizartinib / (AC220); 72 h proliferation; inhibitor
measuredAttribute: IC50 (nM)
Give a bare numeral; the unit nM is implied.

Asked: Using the record for CC(C)(C)c1cc(NC(=O)Nc2ccc(-c3cn4c(n3)sc3cc(OCCN5CCOCC5)ccc34)cc2)no1 [quizartinib] , report its IC50.
Given back: 3.1

* * *

tested on: BaF3-tel-FLT3-R834Q; test: cells; design: species or system Ba/F3 stable lines; settings: Mus musculus, BaF3, 72 h, read-out: GZD824
measuredAttribute: IC50 (µM)
Provide only the numeric value, understood in µM.

Asked: Could you share which IC50 value was measured for "Cc1ccc(C(=O)Nc2ccc(CN3CCN(C)CC3)c(C(F)(F)F)c2)cc1C#Cc1cnc2[nH]ncc2c1" ?
Given back: 0.0762

* * *

tested on: BaF3-FLT3-ITD-D835N; experiment: cells; parameters: species or system Ba/F3 stable lines; conditions: read-out: Quizartinib / (AC220); 72 h proliferation; inhibitor
measuredAttribute: IC50 (nM)
Give a bare numeral; the unit nM is implied.

Asked: Form entry - test system: BaF3-FLT3-ITD-D835N; read-out: IC50; molecule: CC(C)(C)c1cc(NC(=O)Nc2ccc(-c3cn4c(n3)sc3cc(OCCN5CCOCC5)ccc34)cc2)no1 [quizartinib]
Given back: 1.6

* * *

tested on: BaF3-FLT3-ITD-D835Y; assay: cells; parameters: species or system Ba/F3 stable lines; details: Mus musculus, BaF3, 72 h, read-out: GZD824
measuredAttribute: IC50 (nM)
Just the number please, in nM, no unit attached.

Asked: Report IC50 for "Cc1ccc(C(=O)Nc2ccc(CN3CCN(C)CC3)c(C(F)(F)F)c2)cc1C#Cc1cnc2[nH]ncc2c1" please.
Given back: 35.7

* * *

system: MV411^Flt3-ITD; test: cells; design: species or system human leukemia lines named per line; settings: 72 h, read-out: Gilteritinib (ASP2215)
measuredAttribute: IC50 (nM)
Kindly provide the numeric value in nM only, without the unit symbol.

Asked: Which IC50 reading was recorded for the molecule CCc1nc(C(N)=O)c(Nc2ccc(N3CCC(N4CCN(C)CC4)CC3)c(OC)c2)nc1NC1CCOCC1 [gilteritinib] ?
Given back: 3.34
